- Test: AUC in Wistar rat at 3 mg/kg, po
- Type: ADME, organism-based
- Condition Set: in vivo
Property: AUC (µM·h)
Record the value in µM·h, omitting the unit from your answer.

[Q] Hello, please tell me recorded AUC for this one: Cn1nc(C(=O)N(Cc2ccccc2)Cc2ccc(C(=O)O)cc2)c2c1-c1cc(Cl)ccc1OC2 [NIDUFEXOR]
[A] 9.2

###

- Test: Oral bioavailability in dog at 2 mg/kg
- Format: ADME, organism-based, Canis lupus familiaris
- Condition Set: in vivo
Property: bioavailability (%)
The response must be a number in % with no trailing unit.

[Q] Supply reported bioavailability belonging to this compound: Cn1nc(C(=O)N(Cc2ccccc2)Cc2ccc(C(=O)O)cc2)c2c1-c1cc(Cl)ccc1OC2 [NIDUFEXOR]
[A] 80
